growth listing for selected compounds.
- Test system: OVCAR-5 ovarian
- ASSAY SUMMARY: NCI-60 one-dose screen, 48 h (100 = growth as untreated, 0 = no growth, -100 = all killed)
- COND: 10 µM unless noted
The panel holds about 83,000 compounds, 20% with a hit somewhere; the sample as a whole holds those more often.
REPORTED ENDPOINT: growth (%)

- COMPOUND: "CC1=C([Se]CC(OC(=O)[C@@H](CSSC(C)(C)C)NC(=O)C(C)(C)C)C(=O)NCCCCCC(=O)OCc2ccccc2)C(=O)c2ccccc2C1=O (stereo not given in full)"
  REPORTED ENDPOINT: "growth"
  VALUE UNIT: "%"
  READOUT VALUE: -28.7
- COMPOUND: "O=C1/C(=C/c2ccccc2Cl)CCc2ccccc21"
  REPORTED ENDPOINT: "growth"
  VALUE UNIT: "%"
  READOUT VALUE: 109
- COMPOUND: "C[C@H]1O[C@@H](O[C@H]2[C@@H](O)C[C@H](O[C@H]3[C@@H](O)C[C@H](O[C@H]4CC[C@]5(C)C6C[C@@H](O)[C@]7(C)[C@@H](C8=CC(=O)OC8)CC[C@]7(O)C6CC[C@@H]5C4)O[C@@H]3C)O[C@@H]2C)C[C@H](O)[C@@H]1O (stereo not given in full)"
  REPORTED ENDPOINT: "growth"
  VALUE UNIT: "%"
  READOUT VALUE: -99.7
- COMPOUND: "C=C(CN1CCc2c([nH]c3ccccc23)C1)c1ccc(C(=O)Nc2ccon2)cc1"
  REPORTED ENDPOINT: "growth"
  VALUE UNIT: "%"
  READOUT VALUE: 90.2
- COMPOUND: "Cc1ccc(C(=O)Cc2ccccc2)c(O)c1"
  REPORTED ENDPOINT: "growth"
  VALUE UNIT: "%"
  READOUT VALUE: 99.1
- COMPOUND: "O=C1/C(=C/c2ccccc2O)C(=S)SN1Cc1ccco1"
  REPORTED ENDPOINT: "growth"
  VALUE UNIT: "%"
  READOUT VALUE: 102
- COMPOUND: "[N-]=[N+]=NCc1cccc(/C(O)=C/C(=O)C(=O)O)c1"
  REPORTED ENDPOINT: "growth"
  VALUE UNIT: "%"
  READOUT VALUE: 63.5
- COMPOUND: "COc1ccc(-c2cnc(SCC(=O)Nc3ccc(-c4nc5ccccc5s4)cc3)n2-c2ccc(OC)cc2)cc1"
  REPORTED ENDPOINT: "growth"
  VALUE UNIT: "%"
  READOUT VALUE: 99
- COMPOUND: "O=C(COc1ccc(/C=C2\\Cc3ccccc3C2=O)cc1)c1ccc(Cl)cc1"
  REPORTED ENDPOINT: "growth"
  VALUE UNIT: "%"
  READOUT VALUE: 102
- COMPOUND: "COc1ccc2ncccc2c1Cc1c(OC)ccc2ncccc12"
  REPORTED ENDPOINT: "growth"
  VALUE UNIT: "%"
  READOUT VALUE: 91.4
- COMPOUND: "COc1ccc(CCN2C(=O)CCC3=C2CCCC3=O)cc1OC"
  REPORTED ENDPOINT: "growth"
  VALUE UNIT: "%"
  READOUT VALUE: 104
- COMPOUND: "Cc1ccc(S(=O)(=O)NCCN2c3nc4ccccc4cc3Sc3cc4ccccc4nc32)cc1"
  REPORTED ENDPOINT: "growth"
  VALUE UNIT: "%"
  READOUT VALUE: 85.6
- COMPOUND: "CCOC(=O)c1cc2oc(/C=C/c3cc(=O)c4cc(Cl)ccc4o3)cc2[nH]1"
  REPORTED ENDPOINT: "growth"
  VALUE UNIT: "%"
  READOUT VALUE: 89.3
- COMPOUND: "Oc1ccc(/C=N/Nc2nc3ccccc3s2)c(O)c1"
  REPORTED ENDPOINT: "growth"
  VALUE UNIT: "%"
  READOUT VALUE: 47.1
- COMPOUND: "Cc1ccc(NC(=O)c2sc3nc4c(cc3c2N)C(=O)CCC4)cc1"
  REPORTED ENDPOINT: "growth"
  VALUE UNIT: "%"
  READOUT VALUE: 78.6
- COMPOUND: "Oc1c(Cl)cc(Cl)c(Cl)c1Cc1c(O)c(Cl)cc(Cl)c1Cl"
  REPORTED ENDPOINT: "growth"
  VALUE UNIT: "%"
  READOUT VALUE: 39.4
- COMPOUND: "O=C(O)CCNS(=O)(=O)c1ccc(-c2ccccc2)cc1"
  REPORTED ENDPOINT: "growth"
  VALUE UNIT: "%"
  READOUT VALUE: 107
- COMPOUND: "CC(NC(N)=S)c1ccccc1 (stereo not given)"
  REPORTED ENDPOINT: "growth"
  VALUE UNIT: "%"
  READOUT VALUE: 97.5
- COMPOUND: "O=C1C2C(C(=O)N1CC[Se][Se]CCN1C(=O)C3C(C1=O)[C@H]1C=C[C@@H]3C1)[C@H]1C=C[C@@H]2C1 (stereo not given in full)"
  REPORTED ENDPOINT: "growth"
  VALUE UNIT: "%"
  READOUT VALUE: -15.4
- COMPOUND: "COc1ccc(/C=C/C(=O)c2cccc(NS(C)(=O)=O)c2)cc1"
  REPORTED ENDPOINT: "growth"
  VALUE UNIT: "%"
  READOUT VALUE: 94.9
